system: Vero E6; assay: cell viability relative to DMSO; higher = less toxic; details: 72 h; 100 nM
observed property: cell viability (%)
Report the value in % with no unit label.

Example molecules with recorded cell viability:
CCn1c(N)c(C(=O)NC)c(=O)c2ccc(C#C[C@@](C)(O)COC)nc21 | 94.8
COc1cc2ncnc(Oc3cccc(NC(=O)Nc4cc(C(C)(C)C(F)(F)F)on4)c3)c2cc1OC | 108
CNCC(O)c1ccc(OC(=O)C(C)(C)C)c(OC(=O)C(C)(C)C)c1 (stereo not drawn) | 93.3
Cc1csc2c(N[C@@H](C)CN3CCN(S(=O)(=O)c4ccc(Cl)c(Cl)c4)CC3)ncnc12 | 102
COc1ccc(Nc2ncnc3ccc(OC)cc23)cc1 | 99.6
CN(CCOc1ccc(NS(C)(=O)=O)cc1)CCc1ccc(NS(C)(=O)=O)cc1 [dofetilide] | 90.2

Lab note: need cell viability for CO[C@@H](C)Cn1c(=O)n(C)c2cnc3ccc(-c4cncc(C(C)(C)O)c4)cc3c21 on Vero E6, anyone have it?
87.2

Lab note: need cell viability for O=C(/C=C/c1ccc2ccc(C(F)(F)F)cc2n1)c1ccncc1 on Vero E6, anyone have it?
110

Lab note: need cell viability for O=C(O)c1cccnc1Nc1cccc(C(F)(F)F)c1 on Vero E6, anyone have it?
97.4

Lab note: need cell viability for CCCC[C@@]1(C2CCCC2)Cc2cc(OCCCC(=O)O)c(Cl)c(Cl)c2C1=O on Vero E6, anyone have it?
99.7

Lab note: need cell viability for CC(C)(C)/[N+]([O-])=C/c1ccc(S(=O)(=O)O)cc1S(=O)(=O)O on Vero E6, anyone have it?
106

Lab note: need cell viability for N#Cc1ccc2[nH]c(O)c(-c3ccc(CN4CCOCC4)cn3)c2c1 on Vero E6, anyone have it?
98.2

Lab note: need cell viability for CCC(=O)O[C@]1(C(=O)CCl)[C@@H](C)C[C@H]2[C@@H]3C[C@H](F)C4=CC(=O)C=C[C@]4(C)[C@@]3(F)[C@@H](O)C[C@@]21C [halobetasol-propionate] on Vero E6, anyone have it?
104

Lab note: need cell viability for CC1=C(C(=O)O)N2C(=O)[C@@H](NC(=O)[C@H](N)C3=CCC=CC3)[C@H]2SC1 on Vero E6, anyone have it?
94.5

Lab note: need cell viability for CN1CCN(C(c2ccccc2)c2ccc(Cl)cc2)CC1 (stereo not drawn) on Vero E6, anyone have it?
103

Lab note: need cell viability for O=S(=O)(/N=C/c1c(O)ccc2ccccc12)c1cccs1 on Vero E6, anyone have it?
100

Lab note: need cell viability for O=C(O)c1cn(C2CC2)c2cc(N3CCNCC3)c(F)cc2c1=O on Vero E6, anyone have it?
102

Lab note: need cell viability for CC[C@@H]1C(=O)N(C)c2cnc(Nc3ccc(C(=O)NC4CCN(C)CC4)cc3OC)nc2N1C1CCCC1 on Vero E6, anyone have it?
103

###

tested on: U2OS; assay: relative viability EC50 (midpoint between 100% and the lowest measured viability); higher = less toxic; conditions: 72 h
Items are presented alongside their recorded relative viability EC50.

CCCS(=O)(=O)Nc1ccc(F)c(C(=O)c2c[nH]c3ncc(-c4ccc(Cl)cc4)cc23)c1F | > 10 µM

Could you tell me which relative viability EC50 is on file for CCCCCCCCCCCCCC(=O)[O-].CCCCCCCCCCCCCC(=O)[O-].N[C@@H]1CCCC[C@H]1N.[Pt+2] ?
> 10 µM

Could you tell me which relative viability EC50 is on file for O=C(Oc1cccc2cccnc12)c1ccccc1 ?
> 10 µM

Could you tell me which relative viability EC50 is on file for NCCCC[C@H](NC(=O)[C@@H]1CCCN1C(=O)[C@@H]1CSSC[C@H](N)C(=O)N[C@@H](Cc2ccc(O)cc2)C(=O)N[C@@H](Cc2ccccc2)C(=O)N[C@@H](CCC(N)=O)C(=O)N[C@@H](CC(N)=O)C(=O)N1)C(=O)NCC(N)=O ?
> 10 µM

Could you tell me which relative viability EC50 is on file for CC(C)(C)NCC(O)COc1cccc2[nH]c(=O)[nH]c12 (stereo not drawn) ?
> 10 µM

Could you tell me which relative viability EC50 is on file for N#Cc1ccc(-c2csc(NN=C3CCCC3)n2)cc1 ?
> 10 µM

Could you tell me which relative viability EC50 is on file for O=C(O)c1ccccc1Nc1cc(Cl)ccc1C(=O)O ?
> 10 µM

Could you tell me which relative viability EC50 is on file for COc1cc(/C=C2\CCCN([C@@H](C)c3ccc(F)cc3)C2=O)ccc1-n1cnc(C)c1 ?
> 10 µM

Sourced from the supplement of paper PMC13380429
